Sourced from patent US8106055B2

Target: serotonin (5-HT) reuptake (Rattus norvegicus)
Construct: synaptosomes are freshly isolated from areas of the rat brain; from tissue; host or cells: rat brain synaptosomes (P2 fraction)
Sequence (P31652 whole entry): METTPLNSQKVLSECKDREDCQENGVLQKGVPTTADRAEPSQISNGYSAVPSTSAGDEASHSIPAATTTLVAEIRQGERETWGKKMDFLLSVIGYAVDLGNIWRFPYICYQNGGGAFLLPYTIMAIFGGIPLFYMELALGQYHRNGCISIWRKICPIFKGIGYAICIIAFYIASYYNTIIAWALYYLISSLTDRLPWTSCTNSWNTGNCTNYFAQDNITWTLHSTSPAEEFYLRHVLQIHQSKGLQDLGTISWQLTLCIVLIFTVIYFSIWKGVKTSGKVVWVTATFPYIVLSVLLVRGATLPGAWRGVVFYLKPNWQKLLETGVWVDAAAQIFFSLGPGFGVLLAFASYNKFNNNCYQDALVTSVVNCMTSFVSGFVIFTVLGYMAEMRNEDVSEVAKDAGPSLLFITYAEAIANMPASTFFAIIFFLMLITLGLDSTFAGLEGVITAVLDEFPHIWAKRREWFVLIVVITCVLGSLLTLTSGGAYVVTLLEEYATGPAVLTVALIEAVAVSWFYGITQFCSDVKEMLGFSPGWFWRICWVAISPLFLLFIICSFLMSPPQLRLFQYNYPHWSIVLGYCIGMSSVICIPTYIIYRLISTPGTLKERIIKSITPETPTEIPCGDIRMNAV
Assay: Inhibition of serotonin (5HT) reuptake in synaptosomes from rat brain
Assay type: biochemical
Settings: test concentration of 10 μM
Protocol: Binding data of the compounds on the μ opioid receptor and data on the inhibition of reuptake of serotonin (5-HT) are given in Table 1. The data for the μ receptor were measured at a test concentration of 1 μM, and those for the serotonin reuptake at 10 μM. The values are stated in % inhibition. Inhibition of Serotonin (5HT) Reuptake In order to be able to carry out these in vitro studies, synaptosomes are freshly isolated from areas of the rat brain. […]
quantity: 5-HT (inhibition of reuptake of serotonin, % inhibition) (%)
I only need the number, in %, no unit after it.

| compound | reported |
| --- | --- |
| COc1cc(C)c(S(=O)(=O)N2CCC(OCC(=O)NCCC3CCC(C(c4ccc(F)cc4)N(C)C)CC3)CC2)c(C)c1C (stereo not shown) [Example 480] | 98 |
| COc1ccc(S(=O)(=O)N2CCCCC2CCOCC(=O)NCC2CCC(C(c3ccc(Cl)cc3)N(C)C)CC2)cc1 (stereo not shown) [Example 312] | 89 |
| CN(C)C(c1ccc(Cl)cc1)C1CCC(CNC(=O)COCCN(Cc2ccccc2)S(=O)(=O)c2ccccc2)CC1 (stereo not shown) [Example 343] | 94 |
| COc1ccc(S(=O)(=O)N(C)CCOCC(=O)NC2CCC(C(c3cccs3)N(C)C)CC2)cc1OC (stereo not shown) [Example 206] | 84 |

get_value(item= CN(C)C(c1ccc(Cl)cc1)C1CCC(CNC(=O)COC2CCN(S(=O)(=O)c3ccc(F)cc3)C2)CC1 (stereo not shown) [Example 394] , readout=5-HT (inhibition of reuptake of serotonin, % inhibition)) returns 93

Measured 5-HT (inhibition of reuptake of serotonin, % inhibition) of CN(C)C(c1cccc(F)c1)C1CCC(NC(=O)COCc2ccccc2)CC1 (stereo not shown) [Example 353] : 60

So, CN(C)C(c1ccc(F)cc1)C1CCC(CCNC(=O)COCCN(C)S(=O)(=O)c2c(Cl)cc(Cl)cc2Cl)CC1 (stereo not shown) [Example 386] ? Its 5-HT (inhibition of reuptake of serotonin, % inhibition) was 98

###

Readings of inhibition at 1 µM for the listed molecules
molecular target: human μ opiate receptor (Homo sapiens); construct: purchased PerkinElmer Life Sciences, Zaventem, Belgium RB-HOM; host or cells: CHO-K1 cells (membrane preparation); assay: Affinity for the human μ opiate receptor ([3H]-naloxone displacement, CHO-K1 receptor membrane preparation, SPA); type: binding; details: test concentration of 1 μM; read-out: μ (binding on the μ opioid receptor, % inhibition)
Write the answer as a number in %, unit excluded.

Solved entries:
| molecule | measured-target | reported |
| --- | --- | --- |
| CN(C)C(c1cccs1)C1CCC(CNC(=O)COCCN(C)S(=O)(=O)c2cccc(C(F)(F)F)c2)CC1 (centres unmarked) | human μ opiate receptor (Homo sapiens) | 94 |
| COc1cc(C)c(S(=O)(=O)N2CCCC(OCC(=O)NCC3CCC(C(c4cccc(F)c4)N(C)C)CC3)C2)c(C)c1C (centres unmarked) | human μ opiate receptor (Homo sapiens) | 87 |
| COc1cc(C)c(S(=O)(=O)N2CCC(CCOCC(=O)NCCC3CCC(C(c4cccs4)N(C)C)CC3)CC2)c(C)c1C (centres unmarked) | human μ opiate receptor (Homo sapiens) | 92 |
| COc1cc(C)c(S(=O)(=O)N2CCC(OCC(=O)NCCC3CCC(C(c4cccs4)N(C)C)CC3)CC2)c(C)c1C (centres unmarked) | human μ opiate receptor (Homo sapiens) | 88 |
| CN(C)C(c1cccc(F)c1)C1CCC(CNC(=O)COC2CCCCC2N(C)S(=O)(=O)c2ccc(Cl)c(Cl)c2)CC1 (centres unmarked) | human μ opiate receptor (Homo sapiens) | 86 |

For CN(C)C(c1cccc(F)c1)C1CCC(CNC(=O)COCC2CCCCN2S(=O)(=O)c2ccc(Cl)c(Cl)c2)CC1 (centres unmarked) the molecule record lists inhibition at 1 µM as 93

# inhibition at 1 µM of CN(C)C(c1ccccc1)C1CCC(CNC(=O)COCC2CCCCN2S(=O)(=O)c2ccc(Cl)c(Cl)c2)CC1 (centres unmarked) = 98

###

Reported B1R Ant. h [10 μM] % Inhibition by item:
molecular target: human bradykinin 1 receptor (B1R) (Homo sapiens); construct: expressed in transfected cells; host or cells: CHO K1 cells; experiment: Functional investigation on the human bradykinin 1 receptor (B1R), Ca2+ FLIPR assay in CHO K1 hB1R cells; assay type: cell-based; settings: B1R antagonism human; test substance 10 μM; Ca2+ FLIPR, CHO K1 hB1R cells
Sequence (P46663 whole entry): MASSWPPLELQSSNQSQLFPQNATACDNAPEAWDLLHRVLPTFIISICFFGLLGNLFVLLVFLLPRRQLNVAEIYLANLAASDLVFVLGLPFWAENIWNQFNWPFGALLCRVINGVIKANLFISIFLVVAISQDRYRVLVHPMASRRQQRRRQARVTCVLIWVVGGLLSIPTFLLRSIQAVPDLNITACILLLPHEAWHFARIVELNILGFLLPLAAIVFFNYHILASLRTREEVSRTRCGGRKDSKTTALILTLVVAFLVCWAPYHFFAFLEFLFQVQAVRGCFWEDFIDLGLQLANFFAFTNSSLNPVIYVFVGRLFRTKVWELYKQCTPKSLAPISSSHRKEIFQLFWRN
Write down the numeric answer in % and omit the unit.

Illustrative cases are given below, each with its answer.
| compound | reported |
| --- | --- |
| COc1ccc(S(=O)(=O)N2CCCCC2COCC(=O)NCC2CCC(C(c3ccc(F)cc3)N(C)C)CC2)cc1 (stereo not shown) [Example 345] | 76 |
| CN(C)C(c1ccc(Cl)cc1)C1CCC(CNC(=O)COC2CCN(S(=O)(=O)c3ccccc3)CC2)CC1 (stereo not shown) [Example 471] | 7 |
| COc1ccc(S(=O)(=O)N(C)CCOCC(=O)NCCC2CCC(C(c3cccc(F)c3)N(C)C)CC2)cc1 (stereo not shown) [Example 292] | 20 |
| CN(C)C(CCc1ccccc1)C1CCC(CNC(=O)COC2CCN(S(=O)(=O)c3ccc(Cl)cc3Cl)C2)CC1 (stereo not shown) [Example 496] | 98 |
| COc1cc(C)c(S(=O)(=O)N2CCC(OCC(=O)NCCC3CCC(C(c4ccc(F)cc4)N(C)C)CC3)CC2)c(C)c1C (stereo not shown) [Example 480] | 23 |

Form: compound = COc1cc(C)c(S(=O)(=O)N(C)CCOCC(=O)NC2CCC(C(c3cccc(F)c3)N(C)C)CC2)c(C)c1 (stereo not shown) [Example 228] ; B1R Ant. h [10 μM] % Inhibition = 104

The recorded B1R Ant. h [10 μM] % Inhibition for entry COc1cc(C)c(S(=O)(=O)N(CCOCC(=O)NCC2CCC(C(c3ccc(Cl)cc3)N(C)C)CC2)Cc2ccccc2)c(C)c1 (stereo not shown) [Example 473] equals 52

###

Some compounds, each annotated with its measured μ (binding on the μ opioid receptor, % inhibition).
target: human μ opiate receptor (Homo sapiens, UniProt P35372); construct: purchased PerkinElmer Life Sciences, Zaventem, Belgium RB-HOM; host or cells: CHO-K1 cells (membrane preparation); assay: Affinity for the human μ opiate receptor ([3H]-naloxone displacement, CHO-K1 receptor membrane preparation, SPA); type: binding; conditions: test concentration of 1 μM
Sequence (P35372 whole entry): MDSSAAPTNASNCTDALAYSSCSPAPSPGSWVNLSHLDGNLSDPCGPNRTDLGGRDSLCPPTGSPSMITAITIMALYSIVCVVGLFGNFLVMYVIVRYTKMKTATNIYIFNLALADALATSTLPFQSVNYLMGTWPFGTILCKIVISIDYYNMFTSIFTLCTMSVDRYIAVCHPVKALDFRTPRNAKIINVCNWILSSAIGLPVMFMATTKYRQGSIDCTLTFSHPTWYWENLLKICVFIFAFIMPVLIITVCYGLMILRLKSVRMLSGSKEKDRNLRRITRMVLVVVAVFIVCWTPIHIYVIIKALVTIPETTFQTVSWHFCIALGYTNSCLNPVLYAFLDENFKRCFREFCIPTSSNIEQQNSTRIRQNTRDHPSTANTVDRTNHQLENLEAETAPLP
// return the numeric value with its unit appended

Example results:
| compound | measured-target | reported |
| --- | --- | --- |
| CN(C)C(c1ccc(Cl)cc1)C1CCC(CCNC(=O)COCCN(C)S(=O)(=O)c2ccc(F)cc2)CC1 (stereo not shown) | human μ opiate receptor (Homo sapiens, UniProt P35372) | 67% |
| Cc1ccc(S(=O)(=O)N2CCC(OCC(=O)NCCC3CCC(C(c4cccc(F)c4)N(C)C)CC3)C2)cc1 (stereo not shown) | human μ opiate receptor (Homo sapiens, UniProt P35372) | 72% |
| CN(C)C(c1ccc(Cl)cc1)C1CCC(CCNC(=O)COCCN(C)S(=O)(=O)c2ccc(OC(F)(F)F)cc2)CC1 (stereo not shown) | human μ opiate receptor (Homo sapiens, UniProt P35372) | 11% |
| CN(C)C(c1ccc(F)cc1)C1CCC(CNC(=O)COCCN(C)S(=O)(=O)c2ccc(Cl)cc2)CC1 (stereo not shown) | human μ opiate receptor (Homo sapiens, UniProt P35372) | 52% |

Continue with the compound presented below.
For reference, reported μ (binding on the μ opioid receptor, % inhibition) for Cc1cc(C)c(S(=O)(=O)N2CCC(OCC(=O)NCC3CCC(C(c4ccc(F)cc4)N(C)C)CC3)C2)c(C)c1 (stereo not shown) stands at 56%

###

Recorded measurements of inhibition at 10 µM, one per entry
Biological target: bradykinin 1 receptor (B1R) of the rat (Rattus norvegicus)
Construct: expressed in transfected cells; host or cells: CHO K1 cells
Sequence (P97583 whole entry): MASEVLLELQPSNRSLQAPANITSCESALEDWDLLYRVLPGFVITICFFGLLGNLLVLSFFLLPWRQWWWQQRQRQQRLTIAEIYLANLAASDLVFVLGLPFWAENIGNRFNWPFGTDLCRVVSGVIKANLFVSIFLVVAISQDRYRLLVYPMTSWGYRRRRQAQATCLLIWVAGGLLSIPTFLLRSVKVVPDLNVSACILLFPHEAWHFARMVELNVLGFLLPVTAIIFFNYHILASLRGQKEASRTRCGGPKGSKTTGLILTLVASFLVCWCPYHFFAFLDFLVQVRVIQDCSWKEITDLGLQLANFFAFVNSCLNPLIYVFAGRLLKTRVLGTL
Experiment: Functional investigation on the rat bradykinin 1 receptor (B1R), Ca2+ FLIPR assay in CHO K1 rB1R cells
Type: cell-based
Details: CHO-K1, B1R antagonism rat; test substance 10 μM; Ca2+ FLIPR, CHO K1 rB1R cells; read-out: B1R Ant. r [10 μM] % Inhibition
Excerpt: Functional Investigation on the Human Bradykinin 1 Receptor (B1R) The agonistic or antagonistic action of substances can be determined on the bradykinin 1 receptor (B1R) of the human species and rats with the following assay. In accordance with this assay, the Ca^2+ inflow through the channel is quantified with the aid of a Ca^2=-sensitive dyestuff (type Fluo-4, Molecular Probes Europe BV, Leiden, Holland) in a fluorescent imaging plate reader (FLIPR, Molecular Devices, Sunnyvale, USA). […]
Write the figure, then the unit, nothing else.

Look over these answered cases.
| compound | inhibition at 10 µM |
| --- | --- |
| CN(C)C(c1cccs1)C1CCC(CCNC(=O)COC2CCN(S(=O)(=O)c3ccc(F)cc3)C2)CC1 (stereo not shown) | 30% |
| COc1cc(C)c(S(=O)(=O)N2CCCC2COCC(=O)NCC2CCC(C(c3ccccc3)N3CCCC3)CC2)c(C)c1 (stereo not shown) | 106% |
| CN(C)C(c1ccccc1)C1CCC(CNC(=O)COCC2CCCN2S(=O)(=O)c2c(Cl)cc(Cl)cc2Cl)CC1 (stereo not shown) | 68% |
| CN(C)C(c1ccccc1)C1CCC(NC(=O)CCOCN(C)S(=O)(=O)c2c(Cl)cc(Cl)cc2Cl)CC1 (stereo not shown) | 73% |

The recorded inhibition at 10 µM for COc1ccc(S(=O)(=O)N2CCCC2COCC(=O)NC2CCC(C(c3cccs3)N(C)C)CC2)cc1 (stereo not shown) is 21%

Measured inhibition at 10 µM, O=C(COC1CCN(S(=O)(=O)c2c(Cl)cc(Cl)cc2Cl)C1)NCC1CCC(C(CCc2ccccc2)N2CCCC2)CC1 (stereo not shown) : 40%

Short answer for COc1cc(C)c(S(=O)(=O)N2CCC(OCC(=O)NCC3CCC(C(c4ccccc4)N(C)C)CC3)C2)c(C)c1 (stereo not shown) : inhibition at 10 µM was 104%
